# credit: patent US9650339B2

measurement.target: UniProt Q9UGL1
Sequence (Q9UGL1 1-809): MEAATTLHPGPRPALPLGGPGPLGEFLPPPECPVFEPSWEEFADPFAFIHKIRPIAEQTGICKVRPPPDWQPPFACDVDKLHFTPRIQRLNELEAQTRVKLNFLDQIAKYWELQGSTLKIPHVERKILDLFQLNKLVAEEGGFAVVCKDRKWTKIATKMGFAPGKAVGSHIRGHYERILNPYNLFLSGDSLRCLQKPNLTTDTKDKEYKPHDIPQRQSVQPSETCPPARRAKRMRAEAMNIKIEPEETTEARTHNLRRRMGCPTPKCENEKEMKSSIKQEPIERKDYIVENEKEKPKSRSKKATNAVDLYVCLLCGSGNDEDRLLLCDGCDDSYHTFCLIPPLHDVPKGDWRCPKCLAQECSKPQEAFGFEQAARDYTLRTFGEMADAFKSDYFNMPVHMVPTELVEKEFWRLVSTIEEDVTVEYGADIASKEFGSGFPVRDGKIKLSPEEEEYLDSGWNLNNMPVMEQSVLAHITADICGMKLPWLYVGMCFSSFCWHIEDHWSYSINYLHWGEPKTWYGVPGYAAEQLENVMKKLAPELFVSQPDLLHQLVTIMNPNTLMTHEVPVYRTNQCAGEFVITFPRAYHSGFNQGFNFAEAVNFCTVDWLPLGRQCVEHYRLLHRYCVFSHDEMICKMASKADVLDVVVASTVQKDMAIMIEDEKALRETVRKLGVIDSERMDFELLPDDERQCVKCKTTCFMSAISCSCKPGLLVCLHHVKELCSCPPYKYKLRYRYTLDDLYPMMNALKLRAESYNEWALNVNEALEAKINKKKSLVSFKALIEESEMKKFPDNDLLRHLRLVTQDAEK
assay.remarks: Histone lysine demethylase AlphaLISA assay, KDM5B
Type: biochemical
recorded.conditions: read-out: KDM5B HDME Inhibition IC50
pIC50: −log10 of the molar value.
assay.endpoint: pIC50

Previously resolved entries follow.
{"compound": "CC1CCCCN1CCCNCc1cc(CNC2CC2)ccn1 (stereo not drawn)", "assay.endpoint": "pIC50", "value.measured": "5.60 to 6.60"}
{"compound": "CCN(CCN(C)C)C(=O)CNCc1cc(CN)ccn1", "assay.endpoint": "pIC50", "value.measured": "> 6.60"}
{"compound": "CN(C)CCCCNCc1cc(C=O)ccn1", "assay.endpoint": "pIC50", "value.measured": "5.60 to 6.60"}
{"compound": "CCN(CCN(C)C)C(=O)CNCc1cc(CNC(=O)C(F)(F)C(F)(F)C(F)(F)F)ccn1", "assay.endpoint": "pIC50", "value.measured": "5.60 to 6.60"}
{"compound": "CN(C)CCCCCNCc1cc(C=O)ccn1", "assay.endpoint": "pIC50", "value.measured": "> 6.60"}

Please fill in: pIC50 reported for `CCCNCc1cc(CNC2CC2)ccn1` = 5.60 to 6.60

Please fill in: pIC50 reported for `CCN(CCN(C)C)C(=O)CNCc1cc(CNC(=O)C(F)(F)CC)ccn1` = > 6.60

Please fill in: pIC50 reported for CNC(C#N)c1ccnc(CNCCCN(C)C)c1 (stereo not drawn) = > 6.60

Please fill in: pIC50 reported for `CCN(CC)C(=O)CNCc1cc(/C=N/CCc2ccc(C)cc2)ccn1` = > 6.60

Please fill in: pIC50 reported for CC1CC1/N=C/c1ccnc(CNCC(=O)N(C)C)c1 (stereo not drawn) = 5.60 to 6.60
